Just for reference, PubChem BioAssay (NCI) is where these values come from.

- System: IGROV1 ovarian
- assay-comment: NCI tumour cell line growth inhibition, 48 h
measured-attribute: GI50

• CS(=O)CCCCCN=C=S (stereo not given) = 4880 nM
• C=C1C[C@](OC)([C@H](O)C(=O)N[C@@H](OC)[C@@H]2C[C@@H](O)C(C)(C)[C@@H](C[C@@H](COC)OC)O2)O[C@H](C)[C@@H]1C = 2.95 nM
• CCOc1ccc([C@@H]2[C@@H](Oc3ccccc3)C(=O)N2c2cc(OC)c(OC)c(OC)c2)cc1 = 150 nM
• CC(=O)c1c(C(F)(F)F)n([O-])c2ccc(Cl)cc2[n+]1=O = 322 nM
• CCN(CC)CCCNc1cccc2c(SCc3ccccc3)ccnc12 = 1900 nM

====

- System: 786-0 renal
- assay-comment: NCI tumour cell line growth inhibition, 48 h
measured-attribute: TGI (µM)

* CCN(CC)CCCNc1cccc2c(SCc3ccccc3)ccnc12 | 2.99
* NC(N)=NS(=O)(=O)c1ccc(NCc2c3ccccc3nc3ccccc23)cc1 | 9.65
* C=C1C[C@](OC)([C@H](O)C(=O)N[C@@H](OC)[C@@H]2C[C@@H](O)C(C)(C)[C@@H](C[C@@H](COC)OC)O2)O[C@H](C)[C@@H]1C | 0.0119
* CS(=O)CCCCCN=C=S (configuration not stated) | 19.5

====

- System: T-47D breast
- assay-comment: NCI tumour cell line growth inhibition, 48 h
measured-attribute: TGI

* S=C(N/N=C(/c1ccccc1)c1ccccn1)Nc1ccccc1Cl | 0.857 µM
* COC(=O)C(O)P(=O)(OC)OC (stereo unspecified) | > 100 µM
* O=C(/C=C/c1ccc(Cl)cc1)Oc1ccc(/C=C2\CCCCC2=O)cc1 | > 100 µM
* CC(C)(C)c1ccc(-c2nc3ccc([N+](=O)[O-])cc3c(=O)o2)cc1 | > 100 µM
* O=C1OCC(c2cccs2)=C1Cl | > 100 µM
* CC(C)(C)c1nc2c(o1)C(=O)c1ccccc1C2=O | 3.97 µM
* CCOc1ccc(/C(O)=C/c2nc3ccccc3nc2/C=C(\O)c2ccc(OCC)cc2)cc1 | > 100 µM
* COc1ccc(Nn2c(SCC(=O)Nc3nc(-c4ccc(Cl)cc4)cs3)nc(C)c2C)cc1 | 8.04 µM
* O=c1oc2ccccc2c(O)c1C(c1ccco1)c1c(O)c2ccccc2oc1=O | > 100 µM
* CSc1cnn(CCC#N)c(=O)n1 | > 100 µM
* C[C@H](Nc1c(O)c2c(c(O)c1Cl)C(=O)C=CC2=O)C(=O)Nc1ccc([N+](=O)[O-])cc1 | > 10 µM
* CC(=O)C(=[N+]=[N-])C(=O)OC(C)(C)C#N | > 10 µM
* Cc1cccc2c1Oc1ccccc1C2NC(=O)c1ccc([N+](=O)[O-])cc1 (stereo unspecified) | > 100 µM
* CON(C)C(C#N)=C(C#N)C#N | > 10 µM
* COc1ccc(/C=C2\C[C@H]3[C@@H]4CCC5=C[C@@H](N6CCCC6)CC[C@]5(C)[C@H]4CC[C@]3(C)[C@H]2O)cc1 | 14.1 µM
* CCN(CC)CCCNc1cccc2c(SCc3ccccc3)ccnc12 | 4.29 µM
* Cc1cn(C2CCC(/C=N\O)O2)c(=O)[nH]c1=O (stereo unspecified) | > 100 µM
* COc1ccc(-c2ccc(/C=N/n3c(COc4ccccc4Cl)nn(CN4CCN(C)CC4)c3=S)o2)c([N+](=O)[O-])c1 | 77.1 µM
* CN(C)CCNc1ccc2c(=O)n(CCN(C)C)c(=O)n3c4ccc([N+](=O)[O-])cc4c(=O)c1c23 | 6.89 µM
* CN1CN(c2ccccc2)C2(CCN(CCCSc3ccccc3NC(=O)/C=C/c3ccccc3)CC2)C1=O | > 59.7 µM
* COc1cc(NCCCCN=C(N)NC(N)=NC(C)C)c2ncccc2c1 | 8.2 µM

====

- System: U251 CNS
- assay-comment: NCI tumour cell line growth inhibition, 48 h
measured-attribute: TGI

• O=P(Oc1ccccc1)(Oc1ccccc1)Oc1c[nH]c2ccccc12 = 31.9 µM
• COc1ccc2nc3ccc(OC)cc3c(S(=O)(=O)Cc3ccc([N+](=O)[O-])cc3)c2c1 = > 100 µM
• COc1ccc(N=C(C)c2ccncc2)cc1 = > 100 µM
• CCCc1c(OC)c(=O)c2c(OC)cc(OC)c3c4c(OC)cc(OC)c5c(=O)c(OC)c(CCC)c(c1c23)c54 = 29.6 µM
• N/N=C1\C(=O)N(C2CCCCC2)C(=O)C1C(=O)NC1CCCCC1 (stereo not drawn) = > 100 µM
• Cc1cc(C)nc(NS(=O)(=O)c2ccc(Nc3c4ccccc4nc4c(C(=O)NCCCN(CCO)CCO)cccc34)cc2)n1 = > 100 µM
• Cn1c2c(c3ccccc31)C1CCCCC1C1C(=O)NC(=O)C21 (stereo not drawn) = > 100 µM
• CN(NC(=O)CCCl)C1=NCCN1 = > 100 µM
• Cc1ccc(NC(=O)NC(=O)c2ccc([N+](=O)[O-])cc2[N+](=O)[O-])cc1Oc1ncc(Cl)cn1 = 3.83 µM
• CCCc1cc(=O)oc2c3c(c4c(c12)OC(C)(C)C=C4)O[C@@H](C)[C@H](C)C3=O = 97.6 µM
• O=c1[nH]c(Nc2cccc(C(F)(F)F)c2)nc2nc[nH]c12 = > 100 µM
• CC1(C23CC4CC(CC(C4)C2)C3)n2c(=O)n(-c3ccccc3)c(=O)n2C1(C)C12CC3CC(CC(C3)C1)C2 (stereo not drawn) = > 100 µM
• N#Cc1c(-c2ccc(Cl)cc2)n(O)c2ccccc12 = 7.06 µM
• CN(C)c1ccc(/C=C(/NC(=O)c2ccccc2)c2nc3ccc(Cl)cc3[nH]2)cc1 = > 100 µM
• CN(C)c1ccc(N=Cc2c([O-])ccc3ccccc23)cc1.[C-]#[O+].[C-]#[O+].[Ir] = 30.4 µM
• CC(C)[C@@]12C[C@@H](OC(=O)[C@H]3CO3)[C@@](C)(O1)[C@@H]1CC[C@@H](C)[C@H]1[C@@H]2OC(=O)/C=C/c1ccccc1 = > 80.6 µM
• CCC1=CC2CN3CCc4c([nH]c5ccccc45)C(C(=O)OC)(C2)C13 (stereo not drawn) = 117 µM
• CC1OC(OC2C(O[C@H]3CC[C@@]4(C)[C@@H](CC[C@@H]5[C@@H]4CC[C@]4(C)[C@@H]6[C@H](C[C@@H]54)O[C@]4(CC[C@@H](C)CO4)[C@H]6C)C3)OC(CO)C(OC3OC(CO)C(O)C(OC4OCC(O)C(O)C4O)C3OC3OCC(O)C(O)C3O)C2O)C(O)C(O)C1O (stereo partly drawn) = 1.79 µM

====

- Tested on: MOLT-4 leukemia
- assay-comment: NCI tumour cell line growth inhibition, 48 h
measured-attribute: TGI

• CC(=O)c1ccc(NC(=O)CSc2nnc(-c3cc(-c4ccc(C)cc4)nc4ccccc34)o2)cc1 = > 100 µM
• CC1(C2(C)OC(=O)c3ccccc32)OC(=O)c2ccccc21 (stereo not given) = > 100 µM
• Cc1ccc(S(=O)(=O)NN=C2CCCCCCCCCCC2)cc1 = > 100 µM
• CC(OC(=O)NCn1cc(-c2ccccc2)nn1)c1ccccc1 (stereo not given) = 47.4 µM
• Cn1c2c(c3ccccc31)C1CCCCC1C1C(=O)NC(=O)C21 (stereo not given) = 67.5 µM
• Nc1nc(SCCNC(=O)CCc2ccc(O)cc2)nc2c1ncn2C1OC(CO)C(O)C1O (stereo not given) = > 203 µM
• Cc1cc2cc3cc(C)c(N(C)C)cc3nc2cc1N(C)C = > 100 µM
• CCCCc1c2c(nc3c1CCCC3O)/C(=C/c1ccccc1)CCC2 (stereo not given) = 38.7 µM
• CC(C)(C)NN=C1C(C)(C)C(=NNC(C)(C)C)C1(C)C = > 100 µM
• CC1=C2C(=O)[C@H]3[C@@H](CC=C4C[C@@H](O)CC[C@@]43C)[C@@H]2CC[C@]12O[C@@H]1C[C@H](C)CN[C@H]1[C@H]2C = > 100 µM

====

- Test system: U251 CNS
Possible outcomes: 1 for active, -1 for inactive

- COc1cccc(C2C(C#N)=C(N)Oc3cc(N)ccc32)c1 (stereo not given): 1
- CCC[CH2][Sn]([CH2]CCC)([O]C(=O)c1cc(F)cc(F)c1)[O]C(=O)c1cc(F)cc(F)c1: -1
- O=C1C(Br)=CC2(C=C1Br)CCN=c1c2c(O)c2nc3ccccc3c3ccnc1c23: -1
- CC(=O)N1CC(Nc2ccc(OC(F)(F)F)cc2)=CC1=O: -1
- CC(C)CCOc1ccc(-c2n[nH]c(C(F)(F)F)c2-c2cncc(C#N)c2)c(O)c1: -1

====

- Tested on: RXF 393 renal
- assay-comment: NCI tumour cell line growth inhibition, 48 h
measured-attribute: log10 TGI (log10 of the value in µM)

* Cc1cc2cc3cc(C)c(N(C)C)cc3nc2cc1N(C)C | 1.49
* CCCCCCCCCCCCCCCCCC1=NCCN1CS(=O)(=O)O | 1.55
* COC(=O)C1=C(C(=O)OC)C2(OC(C)=O)c3ccccc3-c3ccccc3C12 (stereo not given) | 0.96
* O=[N+]([O-])c1cccc2nc3ccccc3c(NCCc3cccc[n+]3[O-])c12 | -0.96
* Cc1cccc(Oc2nccc(-c3c(-c4ccc(F)cc4)ncn3C3CCNCC3)n2)c1C | 0.96
* Cc1ccc(-c2c(C#N)c(S)n(NS(=O)(=O)c3ccc(C)cc3)c(=O)c2C#N)cc1 | 1.99
* C=C1C[C@](OC)([C@H](O)C(=O)N[C@@H](OC)[C@@H]2C[C@@H](O)C(C)(C)[C@@H](C[C@@H](COC)OC)O2)O[C@H](C)[C@@H]1C | -2.33
* CCNC1(c2cccc(C)c2)OC(C)(C)c2cccc3cccc1c23 (stereo not given) | 1.51
* CN1CCCNc2c(c(=O)c2=O)NCCCN(C)CCCNc2c(c(=O)c2=O)NCCCN(C)CCCNc2c(c(=O)c2=O)NCCCN(C)CCCNc2c(c(=O)c2=O)NCCCN(C)CCCNc2c(c(=O)c2=O)NCCCN(C)CCCNc2c(c(=O)c2=O)NCCCN(C)CCCNc2c(c(=O)c2=O)NCCC1 | 1.10
* CCCCC(=O)Nc1ccc2cc(C(=O)OC)c(ON3C(=O)c4ccccc4C3=O)nc2n1 | 1.72
